- Tgt: catalytic domain of Human PARP (Homo sapiens)
- Construct: The catalytic domain of Human PARP was cloned and prepared; made in house
- Sequence (P09874 788-1014 limits assumed): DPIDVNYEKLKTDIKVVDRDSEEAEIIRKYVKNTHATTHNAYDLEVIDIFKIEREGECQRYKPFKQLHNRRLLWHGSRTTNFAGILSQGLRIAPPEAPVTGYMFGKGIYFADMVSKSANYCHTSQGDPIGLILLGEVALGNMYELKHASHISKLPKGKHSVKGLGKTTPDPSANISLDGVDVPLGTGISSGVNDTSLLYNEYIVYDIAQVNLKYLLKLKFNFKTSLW
- Assay Procedure: Biacore surface plasmon resonance affinity assay
- Assay type: binding
- Condition Label: pKD=-log10 KD, KD in mol/L; Biacore T100, 25° C.; read-out: pKD (converted)
- Procedure: Dissociation Constant (KD) from Surface Plasmon Resonance The catalytic domain of Human PARP was cloned and prepared as described in Kinoshita, et al. FEBS Letters (2006), 556:43-46. […] Parameters Rmax (response at saturation) and KD (binding constant) were calculated through a nonlinear least squares fitting of the equation to the data by use of the Biacore T100 analysis software. […]
Endpoint: Kd

Cc1ccc(C2CCN(CCc3ccc4c(c3)NC(=O)CO4)CC2)cc1 :: 0.126 to 1 µM
CC1Oc2ccc(CN(C)Cc3ccc(F)cc3)cc2NC1=O (stereo not shown) :: 1.26 to 10 µM
CC1Oc2ccc(CN3CCN(c4ccccc4)CC3)cc2NC1=O (stereo not shown) :: 0.126 to 1 µM

Query: I have this compound here, CC1Oc2ccc(CN3CCN(C)C(=O)C3)cc2NC1=O (stereo not shown) , and I need its recorded Kd.
Response: > 10 µM

Query: I have this compound here, CC1Oc2ccc(CN(C)CC(=O)NCc3ccccc3)cc2NC1=O (stereo not shown) , and I need its recorded Kd.
Response: 1.26 to 10 µM

Query: I have this compound here, CC1Oc2cc(CN3CCC(c4ccc(Cl)cc4)CC3)ccc2NC1=O (stereo not shown) , and I need its recorded Kd.
Response: 12.6 to 79.4 µM

Query: I have this compound here, COc1cc(CN2CCN(c3ccc(C(=O)NC4CC4)cc3)CC2)cc2c1OC(C)C(=O)N2 (stereo not shown) , and I need its recorded Kd.
Response: < 0.0316 µM

Query: I have this compound here, CC1Oc2ccc(CN3CCN(c4ccc(C#N)cn4)CC3)cc2NC1=O (stereo not shown) , and I need its recorded Kd.
Response: ≤ 0.01 µM

Query: I have this compound here, "O=C1COc2ccc(CNCC3CCCCC3)cc2N1" , and I need its recorded Kd.
Response: 1.26 to 10 µM

Query: I have this compound here, CCNC(=O)c1cccc(-c2ccc3c(c2)NC(=O)C(C)O3)c1 (stereo not shown) , and I need its recorded Kd.
Response: 12.6 to 79.4 µM

====

Entries below carry reported IC50 on PARP (Homo sapiens, UniProt P09874).
Sequence (P09874 whole entry, the tested form may be a part): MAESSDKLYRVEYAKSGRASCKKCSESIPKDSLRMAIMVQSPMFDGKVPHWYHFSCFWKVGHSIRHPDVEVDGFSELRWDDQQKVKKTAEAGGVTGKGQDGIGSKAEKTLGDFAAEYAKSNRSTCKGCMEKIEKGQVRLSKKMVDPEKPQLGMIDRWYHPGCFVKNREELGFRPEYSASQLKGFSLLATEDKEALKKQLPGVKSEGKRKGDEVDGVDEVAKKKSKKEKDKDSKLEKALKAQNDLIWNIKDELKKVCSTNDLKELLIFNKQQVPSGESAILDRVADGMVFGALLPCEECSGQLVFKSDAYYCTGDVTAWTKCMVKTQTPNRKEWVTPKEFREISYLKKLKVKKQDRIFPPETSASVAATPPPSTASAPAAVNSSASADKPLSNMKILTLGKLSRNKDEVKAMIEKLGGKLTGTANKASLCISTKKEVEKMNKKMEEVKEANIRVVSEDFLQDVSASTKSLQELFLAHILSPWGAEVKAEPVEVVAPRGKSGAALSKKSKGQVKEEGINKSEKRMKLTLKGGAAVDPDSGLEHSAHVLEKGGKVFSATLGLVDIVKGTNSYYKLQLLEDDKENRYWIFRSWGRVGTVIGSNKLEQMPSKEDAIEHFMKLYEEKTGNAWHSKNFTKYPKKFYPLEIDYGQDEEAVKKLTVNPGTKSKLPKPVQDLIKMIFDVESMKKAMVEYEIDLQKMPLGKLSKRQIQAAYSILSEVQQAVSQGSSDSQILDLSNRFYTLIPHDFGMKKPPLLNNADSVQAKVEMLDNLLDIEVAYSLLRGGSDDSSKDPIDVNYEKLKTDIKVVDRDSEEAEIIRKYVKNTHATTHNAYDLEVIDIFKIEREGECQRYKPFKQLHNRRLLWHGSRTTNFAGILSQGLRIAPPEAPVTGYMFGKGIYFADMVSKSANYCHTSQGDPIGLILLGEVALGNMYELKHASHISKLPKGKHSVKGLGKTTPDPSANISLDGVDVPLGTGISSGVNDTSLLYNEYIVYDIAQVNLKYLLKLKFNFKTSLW

Below, 5 compounds whose answers are already recorded.
CC1Oc2c(F)cc(CN3CCN(c4ccc(C#N)cn4)CC3)cc2NC1=O (stereo not shown) :: ≤ 31.6 nM
CCNC(=O)c1ccc(N2CCN(Cc3cc(C)c4c(c3)NC(=O)C(C)O4)CC2)cc1 (stereo not shown) :: ≤ 31.6 nM
CNC(=O)c1ccc(N2CCN(Cc3cc(C)c4c(c3)NC(=O)C(C)O4)CC2)cc1 (stereo not shown) :: ≤ 31.6 nM
CCOC(=O)c1ccc(N2CCN(Cc3cc(C)c4c(c3)NC(=O)C(C)O4)CC2)cc1 (stereo not shown) :: 39.8 to 100 nM
CC1Oc2ccc(CC3CCN(c4ccccc4)CC3)cc2NC1=O (stereo not shown) :: > 200 nM

Query: Reported IC50 for PARP (Homo sapiens, UniProt P09874), given Cc1cc(CN2CCN(c3ccc(C#N)cn3)CC2)cc2c1OC(C)C(=O)N2 (stereo not shown) ?
Response: ≤ 31.6 nM

Query: Reported IC50 for PARP (Homo sapiens, UniProt P09874), given Cc1c(CN2CC=C(c3ccc(Cl)cc3)CC2)ccc2c1NC(=O)C(C)O2 (stereo not shown) ?
Response: > 200 nM

These measurements were taken from patent US8669249B2.
